# run description: Cytotoxicity against human FR2 cells assessed as cell growth inhibition after 48 hrs by MTT assay
# Type: toxicity, cell-based
This section presents compounds with their documented GI50 at 48 h values.

N#CCc1ccc(Nc2ncnc3ccc(-c4cncc5ccccc45)cc23)cc1 : > 50 µM

(Q) // GI50 at 48 h lookup, key: `N#CCc1ccc(Nc2ncnc3ccc(-c4ccc5[nH]ccc5c4)cc23)cc1`
(A) > 50 µM

====

# experimental system: Phosphatidylinositol 4,5-bisphosphate 3-kinase catalytic subunit gamma isoform (Homo sapiens)
# Sequence (P48736 whole entry, canonical isoform): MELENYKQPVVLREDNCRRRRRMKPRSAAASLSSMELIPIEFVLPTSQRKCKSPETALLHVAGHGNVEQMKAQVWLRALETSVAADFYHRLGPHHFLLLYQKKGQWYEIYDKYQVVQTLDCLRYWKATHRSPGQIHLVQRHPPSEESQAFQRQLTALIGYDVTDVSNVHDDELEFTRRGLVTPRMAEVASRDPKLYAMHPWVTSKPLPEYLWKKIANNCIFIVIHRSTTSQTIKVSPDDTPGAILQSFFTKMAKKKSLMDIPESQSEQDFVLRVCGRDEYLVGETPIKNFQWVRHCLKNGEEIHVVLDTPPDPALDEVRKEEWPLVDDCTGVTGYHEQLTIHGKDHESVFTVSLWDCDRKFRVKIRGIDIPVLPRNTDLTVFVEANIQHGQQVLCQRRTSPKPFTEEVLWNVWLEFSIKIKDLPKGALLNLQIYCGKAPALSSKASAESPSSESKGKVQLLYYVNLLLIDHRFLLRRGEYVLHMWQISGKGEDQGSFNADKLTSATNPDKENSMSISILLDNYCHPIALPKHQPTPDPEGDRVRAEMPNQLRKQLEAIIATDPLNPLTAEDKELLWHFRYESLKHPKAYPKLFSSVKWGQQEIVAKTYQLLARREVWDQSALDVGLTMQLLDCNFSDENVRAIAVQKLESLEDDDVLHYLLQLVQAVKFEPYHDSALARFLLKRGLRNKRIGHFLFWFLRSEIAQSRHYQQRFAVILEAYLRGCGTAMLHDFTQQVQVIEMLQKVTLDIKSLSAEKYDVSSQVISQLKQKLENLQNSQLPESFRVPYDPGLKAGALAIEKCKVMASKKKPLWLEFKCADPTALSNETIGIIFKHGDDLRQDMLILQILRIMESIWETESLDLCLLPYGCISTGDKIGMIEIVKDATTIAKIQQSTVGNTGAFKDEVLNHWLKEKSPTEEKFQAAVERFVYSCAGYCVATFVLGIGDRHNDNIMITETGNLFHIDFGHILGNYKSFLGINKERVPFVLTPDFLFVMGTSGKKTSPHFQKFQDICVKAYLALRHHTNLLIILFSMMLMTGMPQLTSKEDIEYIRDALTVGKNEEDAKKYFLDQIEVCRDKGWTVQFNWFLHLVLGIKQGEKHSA
measurement type: IC50
Reply with a number, then the unit it belongs to.

(Q) // IC50 lookup, key: `Nc1nc2cc(-c3ccc4ncc(C(=O)N5CCOCC5)n4c3)ccc2o1`
(A) 1900 nM
